Target: SHP-2 enzyme (Met1-Leu525) (Homo sapiens, UniProt Q06124)
Construct: synthetized by Origene, Met1-Leu525, cat #TP750155
Sequence (Q06124 1-525): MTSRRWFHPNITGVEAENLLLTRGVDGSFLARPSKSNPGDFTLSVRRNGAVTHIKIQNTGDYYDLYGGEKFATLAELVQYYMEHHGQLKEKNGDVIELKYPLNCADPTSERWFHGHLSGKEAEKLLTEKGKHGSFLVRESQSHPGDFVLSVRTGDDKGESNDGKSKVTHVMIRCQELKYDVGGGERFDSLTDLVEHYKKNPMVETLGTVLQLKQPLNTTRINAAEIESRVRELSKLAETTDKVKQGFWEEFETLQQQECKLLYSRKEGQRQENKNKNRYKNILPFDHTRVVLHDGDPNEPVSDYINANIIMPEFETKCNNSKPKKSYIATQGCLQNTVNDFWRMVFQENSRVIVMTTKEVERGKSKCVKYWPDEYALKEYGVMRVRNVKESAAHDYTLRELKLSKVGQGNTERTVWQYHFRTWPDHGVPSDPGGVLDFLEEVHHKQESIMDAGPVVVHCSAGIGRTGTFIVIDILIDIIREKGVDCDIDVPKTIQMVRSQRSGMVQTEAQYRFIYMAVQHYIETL
Test: SHP2 inhibition enzymatic assay (DiFMUP substrate, IRS1 peptide activation)
Settings: SHP2 wt; activated by 500 nM IRS1 peptide; 75 μM DiFMUP substrate
Experimental endpoint: IC50

Tell me IC50 reported for CC1(N)CCN(c2nc3nc(Sc4cccc5nccnc45)cnc3[nH]2)CC1 [Example 71]
< 500 nM

Tell me IC50 reported for CN(C)c1nccc(Sc2cnc3[nH]c(N4CCC5(CC4)Cc4ncccc4[C@H]5N)nc3n2)c1Cl [Example 154]
< 500 nM

Tell me IC50 reported for N[C@@H]1c2cccnc2CC12CCN(c1nc3nc(Sc4ccnc(OC5COC5)c4Cl)cnc3[nH]1)CC2 [Example 153]
500 to 3000 nM

Tell me IC50 reported for CN1C(=O)COc2c(Sc3cnc4nc(N5CCC6(CC5)Cc5ccccc5[C@H]6N)[nH]c4n3)cccc21 [Example 173]
< 500 nM

Tell me IC50 reported for CNc1nccc(Sc2cnc3[nH]c(N4CCC5(CC4)Cc4ccccc4[C@H]5N)nc3n2)c1C#N [Example 201]
< 500 nM

Tell me IC50 reported for CC1(N)CCN(c2nc3nc(Sc4cccc5cnccc45)cnc3[nH]2)CC1 [Example 70]
< 500 nM

Tell me IC50 reported for N[C@@H]1c2ccccc2CC12CCN(c1nc3nc(Sc4ccnc(N5CC(O)C5)c4Cl)cnc3[nH]1)CC2 [Example 165]
< 500 nM

Tell me IC50 reported for COc1ncccc1Sc1cnc2[nH]c(N3CCC4(CC3)Cc3ccccc3[C@H]4N)nc2n1 [Example 214]
< 500 nM

Tell me IC50 reported for CC1(N)CCN(c2nc3nc(Sc4cc(C(F)(F)F)ccc4Cl)cnc3[nH]2)CC1 [Example 36]
500 to 3000 nM

Tell me IC50 reported for Cc1cc(Sc2cnc3[nH]c(N4CCC(C)(N)CC4)nc3n2)c2ccccc2n1 [Example 106]
> 3000 nM

Tell me IC50 reported for Cc1ccnc2c(Sc3cnc4[nH]c(N5CCC6(CC5)Cc5ccccc5[C@H]6N)nc4n3)ccnc12 [Example 254]
< 500 nM

Tell me IC50 reported for CC1(N)CCN(c2nc3nc(Sc4cccc(-c5ccccc5)c4)cnc3[nH]2)CC1 [Example 58]
500 to 3000 nM

Tell me IC50 reported for N[C@@H]1CCCC12CCN(c1nc3ncc(Sc4cccnc4C(F)(F)F)nc3[nH]1)CC2 [Example 2]
< 500 nM

Tell me IC50 reported for N[C@@H]1c2ccccc2CC12CCN(c1nc3nc(Sc4cnc5ccccn5c4=O)cnc3[nH]1)CC2 [Example 221]
500 to 3000 nM

Tell me IC50 reported for CC1(N)CCN(c2nc3nc(Sc4ccccc4S(F)(F)(F)(F)F)cnc3[nH]2)CC1 [Example 74]
< 500 nM

Tell me IC50 reported for CC1(N)CCN(c2nc3nc(Sc4ccccc4S(C)(=O)=O)cnc3[nH]2)CC1 [Example 117]
> 3000 nM

All values here come from patent US20220289753A1.
